# study_target: Insulin Receptor (IR) (UniProt P06213 28-956, limits assumed)
# assay_overview: BIAcore competition: IR pre-incubated with about 40 µM peptide, residual binding to immobilised insulin
quantity_kind: % Binding

- binder: "VTFTSAVFHENFYDWFVRQVS [H2]"
  measurement: "27%"
- binder: "LCQSWGVRIGWLTGLCP [2A9]"
  measurement: "100%"
- binder: "KWLDQEWAWVQCEVYGRGCPSKK [D8 (synthetic peptide)]"
  measurement: "33%"
- binder: "DRAFYNGLRDLVGAVYGAWD [20C11]"
  measurement: "38%"
